system: DIPGX7 (H3.3 K27M diffuse intrinsic pontine glioma line); test: growth inhibition (% activity, log2 RLU normalised to DMSO / staurosporine); higher = more growth inhibition; conditions: 33 µM
Reported growth inhibition values for the following compounds.
Value expressed in %; do not type the unit.

Example cases with answers are listed next.
INSERT INTO results (compound, measured_target, obs_value) VALUES
  ('CC(=O)Oc1ccccc1C(=O)Nc1ncc([N+](=O)[O-])s1', 'DIPGX7', 3.15),
  ('CNC(CC(C)C)C(=O)NC1C(=O)NC(CC(N)=O)C(=O)NC2C(=O)NC3C(=O)NC(C(=O)NC(C(=O)O)c4cc(O)cc(O)c4-c4cc3ccc4O)C(O)c3ccc(c(Cl)c3)Oc3cc2cc(c3OC2OC(CO)C(O)C(O)C2OC2CC(C)(N)C(O)C(C)O2)Oc2ccc(cc2Cl)C1O (centres undefined)', 'DIPGX7', -1.76),
  ('CNNCc1ccc(C(=O)NC(C)C)cc1', 'DIPGX7', 2.87);

Here is another compound to look at.
**Query** growth inhibition lookup needed for `NC12CC3CC(CC(C3)C1)C2` , thanks.
**Result** 0.524

###

tested on: SUDIPGIV (diffuse intrinsic pontine glioma line); assay: growth inhibition (% activity, log2 RLU normalised to DMSO / staurosporine); higher = more growth inhibition; conditions: 33 µM
observed-property: growth inhibition (%)
Value expressed in %; do not type the unit.

INSERT INTO measurements (query_smiles, measured_target, obs_value) VALUES
  ('CCN(CC)CCOC(=O)C1(C2CCCCC2)CCCCC1', 'SUDIPGIV', -0.751),
  ('CN(C)c1ccc(O)c2c1C[C@H]1C[C@H]3[C@H](N(C)C)C(=O)C(C(N)=O)=C(O)[C@@]3(O)C(=O)C1=C2O', 'SUDIPGIV', 2.56),
  ('NCCS', 'SUDIPGIV', -2.89),
  ('C[C@]12C=CC(=O)N[C@@H]1CC[C@@H]1[C@@H]2CC[C@]2(C)[C@@H](C(=O)Nc3cc(C(F)(F)F)ccc3C(F)(F)F)CC[C@@H]12', 'SUDIPGIV', -0.237),
  ('O=C(O)c1ccc(NC(=O)[C@H](Cc2ccc(O)cc2)NC(=O)c2ccccc2)cc1', 'SUDIPGIV', -2.35),
  ('CNC(=C[N+](=O)[O-])NCCSCc1csc(CN(C)C)n1', 'SUDIPGIV', -0.124);

**Query** growth inhibition lookup needed for `O=C(NCCO[N+](=O)[O-])c1cccnc1` , thanks.
**Result** 0.797

**Query** growth inhibition lookup needed for `Cn1cnc([N+](=O)[O-])c1Sc1ncnc2[nH]cnc12` , thanks.
**Result** 32.2

**Query** growth inhibition lookup needed for `Cc1cc2c(s1)Nc1ccccc1N=C2N1CCN(C)CC1` , thanks.
**Result** 3.12

**Query** growth inhibition lookup needed for `O=C(Nc1ccc([N+](=O)[O-])cc1Cl)c1cc(Cl)ccc1O` , thanks.
**Result** 16.6

###

Reported growth inhibition values for the following compounds.
test system: HNSC; assay: growth inhibition (% activity, log2 RLU normalised to DMSO / staurosporine); higher = more growth inhibition; conditions: 33 µM
Value expressed in %; do not type the unit.

INSERT INTO results (compound, measured_target, unit_tag, obs_value) VALUES
  ('CCCCCCCCCCOc1cc2c(O)c(C(=O)OCC)cnc2cc1OCC', 'HNSC', '%', 8.91),
  ('NC(=O)C(c1ccccc1)(c1ccccc1)[C@@H]1CCN(CCc2ccc3c(c2)CCO3)C1', 'HNSC', '%', 1.33);

**Query** growth inhibition lookup needed for CCOC(=O)C1=C(C)NC(C)=C(C(=O)OC)C1c1cccc(Cl)c1Cl (stereo not drawn) , thanks.
**Result** 5.27

**Query** growth inhibition lookup needed for `CCCCC(=O)O[C@H]1CC[C@H]2[C@@H]3CCc4cc(O)ccc4[C@H]3CC[C@]12C` , thanks.
**Result** 72.8

**Query** growth inhibition lookup needed for `O=C1CN2Cc3c(ccc(Cl)c3Cl)N=C2N1` , thanks.
**Result** -2.73

**Query** growth inhibition lookup needed for `CC(=O)CCCCn1c(=O)c2c(ncn2C)n(C)c1=O` , thanks.
**Result** 1.61

**Query** growth inhibition lookup needed for `C=CC(=O)N1CCC[C@@H](n2nc(-c3ccc(Oc4ccccc4)cc3)c3c(N)ncnc32)C1` , thanks.
**Result** 10.8

**Query** growth inhibition lookup needed for CSc1ccc2c(c1)N(CCC1CCCCN1C)c1ccccc1S2 (stereo not drawn) , thanks.
**Result** 7.39

**Query** growth inhibition lookup needed for `O=C1NCC2(CCN(CCc3ccccc3)CC2)O1` , thanks.
**Result** -0.511
